Test system: Caki-2 cells
assay.name: CTG (CellTiter-Glo) cell viability assay, Caki-2
Assay type: cell-based
protocol.conditions: Homo sapiens, CAKI-2, 72 h, Caki-2, 3-day; read-out: CTG Chempartner/PHA- Caki-2 3-day: Average external-IC50
The following compounds are shown together with reported IC50 values.

Field: example entries. Status: answers known.
compound | result
C#Cc1ccc([C@H](C)NC(=O)[C@@H]2C[C@@H](O)CN2C(=O)[C@@H](NC(=O)CCCCCC(=O)N2CCN(CCCNc3ccc(S(=O)(=O)NC(=O)c4ccc(N5CCN(CC6=C(c7ccc(Cl)cc7)CC(C)(C)CC6)CC5)cc4Oc4cnc5[nH]ccc5c4)cc3S(=O)(=O)C(F)(F)F)CC2)C(C)(C)C)cc1 | > 30 µM
C#Cc1ccc([C@H](C)NC(=O)[C@@H]2C[C@@H](O)CN2C(=O)[C@@H](NC(=O)CCCCCC(=O)N2CCN(CC[C@H](CSc3ccccc3)Nc3ccc(S(=O)(=O)NC(=O)c4ccc(N5CCC([C@H](O)c6ccccc6-c6ccc(Cl)cc6)CC5)cc4)cc3S(=O)(=O)C(F)(F)F)CC2)C(C)(C)C)cc1 (single isomer, unassigned) | > 30 µM

(Q) Item under review: Cc1ncsc1-c1ccc([C@H](C)NC(=O)[C@@H]2C[C@@H](O)CN2C(=O)[C@@H](NC(=O)CCCCCC(=O)N2CCN(CCCNc3ccc(S(=O)(=O)NC(=O)c4ccc(N5CCN(C)CC5)cc4Oc4cnc5[nH]ccc5c4)cc3S(=O)(=O)C(F)(F)F)CC2)C(C)(C)C)cc1 . Reported IC50?
(A) > 30 µM

###

tested.target: BCL-XL (Homo sapiens, UniProt Q07817)
Construct: BCL-XL degradation results in MOLT-4 cells for compounds of the invention; endogenous in cells; host or cells: MOLT-4
Sequence (Q07817 whole entry): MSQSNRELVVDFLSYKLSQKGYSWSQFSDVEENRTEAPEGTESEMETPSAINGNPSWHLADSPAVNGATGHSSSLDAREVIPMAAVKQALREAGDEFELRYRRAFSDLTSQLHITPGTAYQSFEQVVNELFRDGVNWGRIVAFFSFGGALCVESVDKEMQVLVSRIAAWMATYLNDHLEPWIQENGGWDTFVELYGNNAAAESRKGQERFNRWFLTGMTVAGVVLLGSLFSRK
assay.name: BCL-XL degradation assay in MOLT-4 cells (ELISA, 6 h)
Assay type: cell-based
The following compounds are shown together with reported Dmax values.

Field: example entries. Status: answers known.
compound | result
Cc1ncsc1-c1ccc([C@H](C)NC(=O)[C@@H]2C[C@@H](O)CN2C(=O)[C@@H](NC(=O)CCCCCCN2CCN(CC[C@H](CSc3ccccc3)Nc3ccc(S(=O)(=O)NC(=O)c4ccc(N5CCN(Cc6ccccc6-c6ccc(Cl)cc6)CC5)cc4)cc3[N+](=O)[O-])CC2)C(C)(C)C)cc1 | 50 to 75%
Cc1ncsc1-c1ccc([C@H](C)NC(=O)[C@@H]2C[C@@H](O)CN2C(=O)[C@@H](NC(=O)CCCCCC(=O)N2CCN(CCCNc3ccc(S(=O)(=O)NC(=O)c4ccc(N5CCN(CC6=C(c7ccc(Cl)cc7)CC(C)(C)CC6)CC5Oc5cnc6[nH]ccc6c5)cc4)cc3S(=O)(=O)C(F)(F)F)CC2)C(C)(C)C)cc1 (stereo partly drawn) | < 50%

Here is another compound to look at.
(Q) Notebook: pull reported Dmax for BCL-XL (Homo sapiens, UniProt Q07817), entry Cc1ncsc1-c1ccc([C@H](C)NC(=O)[C@@H]2C[C@@H](O)CN2C(=O)[C@@H](NC(=O)CCCCCCCC(=O)N2CCN(Cc3ccc(-c4ccc(Cl)cc4)c(CN4CCN(c5ccc(C(=O)NS(=O)(=O)c6ccc(N[C@H](CCN(C)C)CSc7ccccc7)c([N+](=O)[O-])c6)cc5)CC4)c3)CC2)C(C)(C)C)cc1
(A) 50 to 75%

###

The following compounds are shown together with reported DC50 values.
tested.target: BCL-XL (Homo sapiens, UniProt Q07817)
Construct: BCL-XL degradation results in MOLT-4 cells for compounds of the invention; endogenous in cells; host or cells: MOLT-4
assay.name: BCL-XL degradation assay in MOLT-4 cells (ELISA, 6 h)
Type: cell-based
protocol.conditions: read-out: Bcl-xL ELISA in MOLT-4 degradation 6 h: External Abs-DC50

compound | DC50
Cc1ncsc1-c1ccc([C@H](C)NC(=O)[C@@H]2C[C@@H](O)CN2C(=O)[C@@H](NC(=O)CCCCCC(=O)N2CCN(CCCNc3ccc(S(=O)(=O)NC(=O)c4ccc(N5CCN(CC6=C(c7ccc(Cl)cc7)CC(C)(C)CC6)CC5)cc4Oc4cnc5[nH]ccc5c4)cc3S(=O)(=O)C(F)(F)F)CC2)C(C)(C)C)cc1 | 10 to 100 nM
C#Cc1ccc([C@H](C)NC(=O)[C@@H]2C[C@@H](O)CN2C(=O)[C@@H](NC(=O)CCCCCC(=O)N2CCN(CC[C@H](CSc3ccccc3)Nc3ccc(S(=O)(=O)NC(=O)c4ccc(N5CCC([C@@H](O)c6ccccc6-c6ccc(Cl)cc6)CC5)cc4)cc3S(=O)(=O)C(F)(F)F)CC2)C(C)(C)C)cc1 (single isomer, unassigned) | 10 to 100 nM

(Q) Item under review: C#Cc1ccc([C@H](CO)NC(=O)[C@@H]2C[C@@H](O)CN2C(=O)[C@@H](NC(=O)CCCCCC(=O)N2CCN(CCCNc3ccc(S(=O)(=O)NC(=O)c4ccc(N5CCN(CC6=C(c7ccc(Cl)cc7)CC(C)(C)CC6)CC5)cc4Oc4cnc5[nH]ccc5c4)cc3S(=O)(=O)C(F)(F)F)CC2)C(C)(C)C)cc1 . Reported DC50?
(A) < 10 nM

###

The following compounds are shown together with reported Dmax values.
tested.target: BCL-XL (Homo sapiens, UniProt Q07817)
Construct: BCL-XL degradation results in MOLT-4 cells for compounds of the invention; endogenous in cells; host or cells: MOLT-4
assay.name: BCL-XL degradation assay in MOLT-4 cells (ELISA, 6 h)
Format: cell-based

line.notation | tested.target | Dmax
Cc1ncsc1-c1ccc([C@H](C)NC(=O)[C@@H]2C[C@@H](O)CN2C(=O)[C@@H](NC(=O)CCCCCC(=O)N2CCN(CC[C@H](CSc3ccccc3)Nc3ccc(S(=O)(=O)NC(=O)c4ccc(N5CCCN(C)CC5)cc4)cc3S(=O)(=O)C(F)(F)F)CC2)C(C)(C)C)cc1 | BCL-XL (Homo sapiens, UniProt Q07817) | < 50%

Here is another compound to look at.
(Q) Item under review: Cc1ncsc1-c1ccc([C@H](C)NC(=O)[C@@H]2C[C@@H](O)CN2C(=O)[C@@H](NC(=O)CCCCC(=O)N2CCN(CC[C@H](CSc3ccccc3)Nc3ccc(S(=O)(=O)NC(=O)c4ccc(N5CCC([C@@H](O)c6ccccc6-c6ccc(Cl)cc6)CC5)cc4)cc3S(=O)(=O)C(F)(F)F)CC2)C(C)(C)C)cc1 . Reported Dmax?
(A) > 75%

###

tested.target: BCL-XL (Homo sapiens, UniProt Q07817)
Construct: BCL-XL degradation results in MOLT-4 cells for compounds of the invention; endogenous in cells; host or cells: MOLT-4
assay.name: BCL-XL degradation assay in MOLT-4 cells (ELISA, 6 h)
Type: cell-based
value.kind: Dmax

(Q) Item under review: Cc1ncsc1-c1ccc([C@H](C)NC(=O)[C@@H]2C[C@@H](O)CN2C(=O)[C@@H](NC(=O)CCCCCCCC(=O)N2CCN(CCCNc3ccc(S(=O)(=O)NC(=O)c4ccc(N5CCN(CC6=C(c7ccc(Cl)cc7)CC(C)(C)CC6)CC5)cc4Oc4cnc5[nH]ccc5c4)cc3S(=O)(=O)C(F)(F)F)CC2)C(C)(C)C)cc1 [I-86] . Reported Dmax?
(A) 50 to 75%

(Q) Item under review: Cc1ncsc1-c1ccc([C@H](C)NC(=O)[C@@H]2C[C@@H](O)CN2C(=O)[C@@H](NC(=O)CCCCCC(=O)N2CCN(CCCNc3ccc(S(=O)(=O)NC(=O)c4ccc(N5CCC([C@@H](O)c6ccccc6-c6ccc(Cl)cc6)CC5)cc4Oc4cnc5[nH]ccc5c4)cc3S(=O)(=O)C(F)(F)F)CC2)C(C)(C)C)cc1 (single isomer, unassigned) [I-23] . Reported Dmax?
(A) < 50%

(Q) Item under review: Cc1ncsc1-c1ccc([C@H](C)NC(=O)[C@@H]2C[C@@H](O)CN2C(=O)[C@@H](NC(=O)CCCCCCC(=O)N2CCN(CC[C@H](CSc3ccccc3)Nc3ccc(S(=O)(=O)NC(=O)c4ccc(N5CCC([C@@H](O)c6ccccc6-c6ccc(Cl)cc6)CC5)cc4)cc3S(=O)(=O)C(F)(F)F)CC2)C(C)(C)C)cc1 [I-120] . Reported Dmax?
(A) 50 to 75%

###

tested.target: BCL-XL (Homo sapiens, UniProt Q07817)
Construct: BCL-XL degradation results in MOLT-4 cells for compounds of the invention; endogenous in cells; host or cells: MOLT-4
assay.name: BCL-XL degradation assay in MOLT-4 cells (ELISA, 6 h)
Assay type: cell-based
value.kind: Dmax

Field: example entries. Status: answers known.
compound | result
Cc1ncsc1-c1ccc([C@H](C)NC(=O)[C@@H]2C[C@@H](O)CN2C(=O)[C@@H](NC(=O)CCCCCCCCN2CCN(Cc3ccc(-c4ccc(Cl)cc4)c(CN4CCN(c5ccc(C(=O)NS(=O)(=O)c6ccc(N[C@H](CCN(C)C)CSc7ccccc7)c([N+](=O)[O-])c6)cc5)CC4)c3)CC2)C(C)(C)C)cc1 | < 50%
C#Cc1ccc([C@H](C)NC(=O)[C@@H]2C[C@@H](O)CN2C(=O)[C@@H](NC(=O)CCCCCC(=O)N2CCN(CC[C@H](CSc3ccccc3)Nc3ccc(S(=O)(=O)NC(=O)c4ccc(N5CCC([C@H](O)c6ccccc6-c6ccc(Cl)cc6)CC5)cc4)cc3S(=O)(=O)C(F)(F)F)CC2)C(C)(C)C)cc1 (single isomer, unassigned) | 50 to 75%
Cc1ncsc1-c1ccc([C@H](C)NC(=O)[C@@H]2C[C@@H](O)CN2C(=O)[C@@H](NC(=O)CCCC(=O)N2CCN(CCCNc3ccc(S(=O)(=O)NC(=O)c4ccc(N5CCC([C@H](O)c6ccccc6-c6ccc(Cl)cc6)CC5)cc4Oc4cnc5[nH]ccc5c4)cc3S(=O)(=O)C(F)(F)F)CC2)C(C)(C)C)cc1 (single isomer, unassigned) | < 50%
Cc1ncsc1-c1ccc([C@H](C)NC(=O)[C@@H]2C[C@@H](O)CN2C(=O)[C@@H](NC(=O)CCCCCC(=O)N2CCN(CC[C@H](CSc3ccccc3)Nc3ccc(S(=O)(=O)NC(=O)c4ccc(N5CCOCC5)cc4)cc3S(=O)(=O)C(F)(F)F)CC2)C(C)(C)C)cc1 | < 50%

(Q) Item under review: Cc1ncsc1-c1ccc([C@H](C)NC(=O)[C@@H]2C[C@@H](O)CN2C(=O)[C@@H](NC(=O)CCCCCC(=O)N2CCN(CC[C@H](CSc3ccccc3)Nc3ccc(S(=O)(=O)NC(=O)c4ccc(N5CCC([C@@H](O)c6ccccc6-c6ccc(Cl)cc6)CC5)cc4)cc3S(=O)(=O)C(F)(F)F)CC2)C(C)(C)C)cc1 . Reported Dmax?
(A) > 75%

(Q) Item under review: Cc1ncsc1-c1ccc([C@H](C)NC(=O)[C@@H]2C[C@@H](O)CN2C(=O)[C@@H](NC(=O)CCCCCC(=O)N2CCN(CC[C@H](CSc3ccccc3)Nc3ccc(S(=O)(=O)NC(=O)c4ccc(N5CC6CC6C5)cc4)cc3S(=O)(=O)C(F)(F)F)CC2)C(C)(C)C)cc1 (stereo partly shown) . Reported Dmax?
(A) < 50%

(Q) Item under review: Cc1ncsc1-c1ccc([C@H](C)NC(=O)[C@@H]2C[C@@H](O)CN2C(=O)[C@@H](NC(=O)CCCCCCC(=O)N2CCN(C[C@]3(C)CCC(c4ccc(Cl)cc4)=C(CN4CCN(c5ccc(C(=O)NS(=O)(=O)c6ccc(NCCCN7CCOCC7)c(S(=O)(=O)C(F)(F)F)c6)c(Oc6cnc7[nH]ccc7c6)c5)CC4)C3)CC2)C(C)(C)C)cc1 . Reported Dmax?
(A) 50 to 75%
